Several reports have described IC50 for UniProtKB Q9Y233; a selection of those results is presented here.
Number in µM, nothing else.

>>> value_observed("Cc1ccc(C)n2nc(CCc3c[nH]c(-c4cncs4)n3)nc12")
0.0031
>>> value_observed("COCCn1ncc(NC(=O)c2nc(C3CC3)ccc2Nc2cncnc2)c1C(=O)N(C)C")
0.0126
>>> value_observed("Cc1cc(C)n2cc(/C=C/c3nc(-c4cnccn4)cn3C)nc2n1")
0.34

Now consider the entry below.
Please state recorded IC50 (tested on UniProtKB Q9Y233) of Cc1ccc(-c2c[nH]c(CCc3nc4cccc(C)n4n3)n2)o1
0.034

====

Several reports have described IC50 for human PDE10A2 (Homo sapiens (Human), UniProt Q9Y233); a selection of those results is presented here.
Number in nM, nothing else.

Solved cases below.
>>> value_observed("Cn1cc(-c2ccccc2)nc1CCc1ccc2nc(C(F)(F)F)cn2n1")
82.8
>>> value_observed("O=C(Nc1ccn2cc(-c3ccccc3)nc2n1)c1nn[nH]c1C(=O)NC1CC1")
451
>>> value_observed("Cc1ncc(C)n2nc(CCc3c[nH]c(-c4ccco4)n3)nc12")
0.97
>>> value_observed("Cn1cc(NC(=O)c2nc(C3CC3)cnc2Nc2cncnc2)c(C(=O)NCC2CCCO2)n1 (stereo not drawn)")
18.9
>>> value_observed("O=C1N([C@H]2C[C@H](Nc3nc4ccccc4s3)C2)c2ncc(F)cc2C1(F)F")
0.626
>>> value_observed("COCC(C)NC(=O)c1nn(C)cc1NC(=O)c1nc(C2CC2)ccc1Nc1cncnc1 (stereo not drawn)")
6.9
>>> value_observed("CN(C)C(=O)c1ccc(F)c(F)c1NC(=O)c1nc(C2CC2)cnc1Nc1cncnc1")
335

Now consider the entry below.
Please state recorded IC50 (tested on human PDE10A2 (Homo sapiens (Human), UniProt Q9Y233)) of Cc1ncc(C)n2nc(CCc3nc(-c4cncnc4)cn3C)nc12
0.44

====

Several reports have described IC50 for human PDE10A2 (Homo sapiens (Human), UniProt Q9Y233); a selection of those results is presented here.
The class of a record is decided solely by its measured IC50; consult low range (below 10 nM), mid range (10 nM to below 200 nM), high range (200 nM or more)

>>> group("Cc1ncc(C)n2nc(CCc3nc(N4CCCC4)nn3-c3ccccc3)nc12")
"low range"
>>> group("c1ccc2nc(N[C@H]3C[C@H](n4c(C5CC5)nc5cccnc54)C3)ccc2c1")
"low range"
>>> group("Cc1cnc2c(C(=O)NC3(c4ccc(C(F)(F)F)cc4F)CCOCC3=O)cnn2c1 (stereo not drawn)")
"high range"
>>> group("Cc1c(-c2ccc(-c3ccccc3CN3CCN(c4ccccc4)CC3)cc2)nc2ccc(F)cc2c1CO")
"mid range"
>>> group("CN(C)CCNC(=O)c1c(NC(=O)c2nc(C3CC3)cnc2Nc2cncnc2)cnn1C")
"mid range"

Returns: class label. Input: O=C(NC1(c2ccc(C(F)(F)F)cc2F)CCOC1)c1cnn2cc(C3CC3)cnc12 (racemic)
high range

Returns: class label. Input: CCOC(=O)c1cnn(CC)c1C(=O)Nc1ccn2cc(-c3ccccc3)nc2n1
mid range

Returns: class label. Input: CSc1nc(N)c2nnn(C3CCCCC3)c2n1
high range

Returns: class label. Input: Cc1nc2c(C3CC3)cc(CCc3nc(N4CCCC4)nn3C)nn2c1C
low range

Returns: class label. Input: Cc1nn2cc(C3CC3)cnc2c1C(=O)NC1(c2ccc(C(F)(F)F)nc2)CCOCC1
high range

Returns: class label. Input: Cc1cccc2nc(CCc3nc(-c4ccccc4)nn3C)nn12
high range

Returns: class label. Input: O=C(NC1(c2ccc(C(F)(F)F)cc2F)CCOCC1=O)c1cnn2cc(C3CC3)cnc12 (stereo not drawn)
high range
